Data provenance is the supplement of paper PMC10567573.

Recorded measurements of protein stability index, one per entry
B1: ZNF263 (parent)
chain: RTHTGEKPYKCTLCGENFSHRSNL

Variants of: B1
Assay: protein stability index of a GFP-peptide fusion (GPS, HEK-293T) (PSI 1-6); higher = more stable;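 note: lentivirally expressed fusions sorted by FACS into six bins by GFP to DsRed ratio, PSI derived from sequencing read proportions per bin multiplied by bin number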
Settings: c terminus: a fixed tail appended
Hey, just send me the number, nothing else.

Here is how some variants turned out for protein stability index.
mutation_spec=K7M quantity_measured="protein stability index" numeric_readout=1.97
mutation_spec=N23G quantity_measured="protein stability index" numeric_readout=2.06
mutation_spec=C14A quantity_measured="protein stability index" numeric_readout=3.07
mutation_spec=E6Y quantity_measured="protein stability index" numeric_readout=2.64
mutation_spec=E6T quantity_measured="protein stability index" numeric_readout=2.26

Identify protein stability index associated with the variant "S19G"
1.96
